# Test system: PI(3,4)P2 liposomes
# Test Protocol: Yeast proteome chip probed with PI(3,4)P2 liposomes
# Setup Conditions: liposome binding signal on yeast proteome chip, Cy3-streptavidin detection
# Source text: To identify PI-binding proteins in yeast, liposomes were used as probes because the liposome provides the most relevant physiological condition to assay the interactors. Six types of liposomes were used. Each contains phosphatidylcholine (“PC”) with 1% (w/w) N-(biotinoyl)-1,2-dihexadecanoyl-sn-glycero-3-phosphoethanolamine, triethylammonium salt (biotin DHPE). The biotinylated lipid serves as a label that can be detected by Cy3-streptavidin (21). […]
Measurement Type: PI(3, 4)P2
One number for each entry.

(Q) Quickly give me recorded PI(3, 4)P2 for OPY1: yeast GST-HisX6 fusion protein on proteome chip (protein, UniProt P38271 1-328, looked up, GST-His6 fusion tag, yeast GST-HisX6 fusion protein on proteome chip) Pleckstrin homology domain …: MIAGATAPSSQHEILIASNLIKKPSTSQNKTPTAQSSSGNNGAADGAPQGYHHHHHHHRHLWWPRTTDHQYWCVLRKNQFAYYKTRDEREAISVIPRFDILNFKISELDGILTVYTPSKDLIFKFPRGQNEKVGMELMHNWKIALEKFLSSPSGNESVTTGSDYDEEEDDDDLIVVDEKAGPSSSKHSCSLTMDEQLSREDKEFYRMFDPRNAEHQVCSGILYTKVKKKKLFNRAKWQKFNVELTNTSFNLYSFKTGKLKKSIKLDKIIDCIELDNNSKMKNDDTNFALITFDERLSFKAANDQDMVDWIINFKSGILIRKKLKAENI
(A) 179.27

Data origin: patent US20050182242A1
